// data source = PubChem BioAssay

TARGET: Follistatin-related protein 3 (Homo sapiens) (UniProt O95633)
Sequence (O95633 whole entry, looked up): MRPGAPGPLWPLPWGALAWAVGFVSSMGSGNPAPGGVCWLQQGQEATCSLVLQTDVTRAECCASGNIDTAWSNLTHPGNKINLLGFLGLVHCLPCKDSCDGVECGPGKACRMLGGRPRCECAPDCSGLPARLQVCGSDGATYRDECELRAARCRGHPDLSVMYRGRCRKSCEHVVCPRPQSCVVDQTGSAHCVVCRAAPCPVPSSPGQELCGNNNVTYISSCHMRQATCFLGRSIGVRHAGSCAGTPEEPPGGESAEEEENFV
PROCEDURE SUMMARY: compounds binding follistatin-related protein 3 – biochemical, small-molecule microarray, 635 nm fluorescence, primary screen (AID 1105);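 also: score merges emission near 667 nm and signal to noise per printed spot across three slides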
ASSAY SETUP: FSTL3 binding, higher = more signal
Quick rule: composite z-score of at least 0.8 means criterion met, below that means criterion not met.

>>> qualitative_label("CCCC[C@H]1C[C@@H]1[C@@H]1N(C(C)=O)[C@H](c2cccc(OC)c2)CC12CC2")
"criterion not met"
>>> qualitative_label("C=CC[C@@]1(C(=O)N(C)C)N=C(c2ccc(OCCCO)cc2)O[C@@H]1c1ccccc1CN=[N+]=[N-]")
"criterion met"
>>> qualitative_label("COc1cc(C(O)C2C=CC3C(=O)N(c4ccccc4)C(=O)C3N2Nc2ccccc2F)cc(OC)c1OC (centres undefined)")
"criterion not met"
>>> qualitative_label("CO[C@H]1O[C@H](CO)[C@@H](OC(=O)Nc2ccccc2-c2ccccc2)[C@H](OC(=O)Nc2ccccc2)[C@H]1OC(=O)Nc1ccccc1")
"criterion met"
>>> qualitative_label("CCCCC(O)C1C=CC2C(=O)N(c3ccccc3)C(=O)C2N1Nc1ccc(C#N)cc1 (centres undefined)")
"criterion not met"
>>> qualitative_label("O=C1O[C@H](c2ccccc2)[C@H](c2ccccc2)N2[C@H]1[C@@H](C(=O)N1CCN(c3ncccn3)CC1)[C@]1(C(=O)Nc3ccc(C#CCCO)cc31)[C@H]2c1ccc(O)cc1")
"criterion not met"
>>> qualitative_label("COc1cc(C(O)C2C=CC3C(=O)N(c4ccccc4)C(=O)C3N2Nc2ccccc2)cc(OC)c1OC (centres undefined)")
"criterion met"
>>> qualitative_label("O=C1O[C@@H](c2ccccc2)[C@@H](c2ccccc2)N2[C@@H](c3ccc(OCCO)cc3)[C@]3(C(=O)Nc4ccc(C#CC5(O)CCCCCC5)cc43)[C@@H](C(=O)Nc3nc4ccccc4s3)[C@H]12")
"criterion met"
>>> qualitative_label("CN(C)C(=O)[C@@]1(Cc2ccccc2CN=[N+]=[N-])COC(c2ccc(OCCCO)cc2)=N1")
"criterion not met"
>>> qualitative_label("C=C(CCCC)/C(=C/C[C@H](OC(=O)c1ccncc1)c1ccccc1OCCO)c1cc(C(=O)OC)ccc1OC")
"criterion not met"
>>> qualitative_label("COC(=O)C(CC#Cc1ccc2c(c1)[C@]1(C(=O)N2)[C@H](C(=O)NC[C@H](O)c2ccccc2)[C@H]2C(=O)O[C@H](c3ccccc3)[C@H](c3ccccc3)N2[C@@H]1c1ccccc1OCCO)C(=O)OC")
"criterion met"
>>> qualitative_label("O=C1[C@H]2C=C(I)[C@H](C[C@@H]2OCCCCCCO)[C@@]12CO2")
"criterion met"
>>> qualitative_label("COCCOC(=O)N1C(=O)[C@@]2(c3cc(C#CCCO)ccc31)[C@H](C(N)=O)[C@H]1C(=O)O[C@H](c3ccccc3)[C@H](c3ccccc3)N1[C@@H]2c1ccccc1OCCO")
"criterion met"
>>> qualitative_label("COCCOC(=O)N1C(=O)[C@@]2(c3cc(C#CC4(O)CCCCCC4)ccc31)[C@H](c1ccc(O)cc1)N1[C@H](c3ccccc3)[C@H](c3ccccc3)OC(=O)[C@H]1[C@@H]2C(=O)N1CCCCCCC1")
"criterion met"
>>> qualitative_label("CC(C)C(=C=CC[C@H](O)c1ccccc1OCCO)C[C@H](O)c1cc(Cl)cc(Cl)c1O")
"criterion not met"
>>> qualitative_label("COCCCNC(=O)[C@@]1(CCC(=O)OC(C)(C)C)COC(c2ccc(OCCCO)cc2)=N1")
"criterion not met"
>>> qualitative_label("O=C1O[C@@H](c2ccccc2)[C@@H](c2ccccc2)N2[C@@H](c3ccccc3OCCO)[C@]3(C(=O)Nc4ccc(C#CCCO)cc43)[C@@H](C(=O)NC[C@H](O)c3ccccc3)[C@H]12")
"criterion met"
>>> qualitative_label("COC(=O)[C@]1(Cc2ccccc2)N=C(c2ccc(OCCCO)cc2)O[C@@H]1c1ccccc1CN=[N+]=[N-]")
"criterion not met"
>>> qualitative_label("COc1ccc(C(=O)Nc2ccc3c(c2)[C@@]2(O[C@H](CCO)[C@@H]([Si](C)(C)c4ccc(OC)cc4)[C@@H]2C)C(=O)N3Cc2ccccc2)cc1")
"criterion not met"
>>> qualitative_label("C=CC[C@@]12N=C(c3ccc(OCCCO)cc3)O[C@@H]1c1ccccc1N(CCC)C2=O")
"criterion met"
>>> qualitative_label("C=CC[C@]1(C(=O)NCC(O)CO)COC(c2ccc(OCCCO)cc2)=N1 (some centres undefined)")
"criterion not met"
>>> qualitative_label("C=CC1c2cc(O)c(OC)cc2CCN1C (centres undefined)")
"criterion not met"
>>> qualitative_label("C=CCN1Cc2ccccc2[C@H]2OC(c3ccc(OCCCO)cc3)=N[C@@]2(CCS(=O)(=O)c2ccccc2)C1=O")
"criterion met"
>>> qualitative_label("COc1ccc(C(=O)Nc2ccc(CN3C(=O)[C@@]4(O[C@@H](CCn5cc(CCO)nn5)[C@H]([Si](C)(C)c5ccc(OC)cc5)[C@H]4C)c4ccccc43)cc2)cc1")
"criterion met"
>>> qualitative_label("CCOC(=O)C1=C[C@@H](C(C)(C)C)N(S(=O)(=O)c2ccc(C)cc2)[C@H]1c1ccc(C#N)cc1")
"criterion met"
>>> qualitative_label("COc1ccc(C(=O)Nc2cccc(CN3C(=O)[C@]4(O[C@H](CC(=O)N5Cc6ccccc6C[C@H]5CO)[C@@H]([Si](C)(C)c5ccc(OC)cc5)[C@@H]4C)c4ccccc43)c2)cc1")
"criterion met"
>>> qualitative_label("O=C1c2ccccc2[C@@]2(Cc3ccccc3N(Cc3ccccc3)C2=O)[C@H](c2ccc(CO)cc2)N1Cc1ccccc1Cl")
"criterion not met"
>>> qualitative_label("CCCCCC1=C2CNC(CC(C)C)(C(=O)OC)C=C2C(C)C1=O (centres undefined)")
"criterion not met"

====

PROCEDURE SUMMARY: changes in parasitized red cell lysis, either direction – P. falciparum Indochina, OD700, 3 h, PSAC antagonist project, primary screen (AID 1156)
ASSAY SETUP: P. falciparum-infected erythrocytes, osmotic lysis, higher = more signal, called active from +8 up or from −8 down
Documented z-score across a set of compounds
ASSAY METRIC: z-score

>>> meas_value("COC(=O)[C@@]1(Cc2ccccc2)[C@H]2c3cc(C(=O)N(C)C)n(CCSC(=N)N)c3C[C@H]2CN1C(=O)c1ccccc1")
0.746
>>> meas_value("CC[C@@H]1C=C(C(=O)O)[C@H](c2ccc(OC)cc2)N1S(=O)(=O)c1ccc(C)cc1")
-0.51
>>> meas_value("C=C(COC)C(=O)CC[C@@H](OC(C)=O)c1ccccc1OCCO")
-0.0421
>>> meas_value("C=CCOC(=O)[C@@H]1[C@H]2C(=O)O[C@H](c3ccccc3)[C@H](c3ccccc3)N2[C@H](c2ccc(OCCOC(=O)[C@H]3C[C@H]4C(=O)N5CCC[C@H]5C(=O)N4[C@H]3c3cccc(OCCO)c3)cc2)[C@@]12C(=O)Nc1ccc(I)cc12")
-0.341
>>> meas_value("CCCCCCc1nc(Cc2cc(OC)c(OC)c(OC)c2)cc2c1[Si](C(C)C)(C(C)C)O[C@H]2c1ccccc1")
0.491
>>> meas_value("Cc1ccc(S[C@]2(C(=O)NC(C)C)CC(=O)N(C3CCCCC3)[C@@H]2c2ccc(CO)cc2I)cc1")
1.18
>>> meas_value("C=CC[C@@]12N=C(c3ccc(OCCCO)cc3)O[C@@H]1c1ccccc1N(CCC)C2=O")
1.75

====

TARGET: Concanavalin-A (Canavalia ensiformis) (UniProt P02866)
Sequence (P02866 whole entry, looked up): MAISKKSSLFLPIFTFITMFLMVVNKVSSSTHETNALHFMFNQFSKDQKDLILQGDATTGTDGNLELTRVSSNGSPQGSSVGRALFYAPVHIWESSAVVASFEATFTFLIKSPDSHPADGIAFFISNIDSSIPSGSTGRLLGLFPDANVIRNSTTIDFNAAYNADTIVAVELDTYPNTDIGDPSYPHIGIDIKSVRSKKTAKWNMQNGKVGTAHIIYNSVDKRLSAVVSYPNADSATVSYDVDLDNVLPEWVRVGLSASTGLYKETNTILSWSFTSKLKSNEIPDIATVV
PROCEDURE SUMMARY: compounds binding concanavalin A lectin – biochemical, small-molecule microarray, Alexa647 label, 635 nm, artefact control for SMM control protein annotation, primary screen (AID 1127);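 also: z combines 667 nm emission intensity with signal-to-noise across three replicate slides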
ASSAY SETUP: ConA-A647 binding fluorescence, higher = more signal
Documented composite z-score across a set of molecules
ASSAY METRIC: composite z-score

>>> meas_value("CC(C)C(=C=CC[C@H](O)c1ccccc1OCCO)C[C@H](O)c1cc(Cl)cc(Cl)c1O")
1.14
>>> meas_value("C=C(CCCC)/C(=C/C[C@@H](OC(C)=O)c1ccc(CO)o1)c1cnc2ccccc2c1")
0.875
>>> meas_value("C=C(COC)/C(=C/C[C@@H](OC(C)=O)c1ccccc1OCCO)c1cnc2ccccc2c1")
0.995
>>> meas_value("CC(C)(C)N1CC=CC23O[C@@H]4/C=C\\CCCOC(=O)C4[C@H]2C(=O)N(CCCO)[C@@H]3C1=O (stereo partly drawn)")
-1.02
>>> meas_value("CCOC(=O)C1=CC[C@@H](c2ccc(OC)cc2)N(S(=O)(=O)c2ccc(C)cc2)[C@H]1CC")
1.07
>>> meas_value("CC(=O)c1ccc(C(O)C2C=CC3C(=O)N(c4ccccc4)C(=O)C3N2Nc2ccc(C(C)C)cc2)cc1 (stereo not drawn)")
1.13
>>> meas_value("CN(C)CCCC[C@@H]1NC(=O)[C@@H]2C[C@H](C(=O)NCCCCCN)[C@H](c3cccc(OCCO)c3)N2C1=O")
1.21
>>> meas_value("CO[C@H]1O[C@H](CO)[C@@H](OC(=O)Nc2ccccc2-c2ccccc2)[C@H](OC(=O)Nc2ccccc2)[C@H]1OC(=O)Nc1ccccc1")
1.15
